- System: M14
- protocol.details: NCI tumour cell line growth inhibition, 48 h
Activity calls are given as the source filed them. Rule as the data show it: active = GI50 up to about 1.1 µM and inactive = higher.
experimental.readout: GI50

Example cases with answers are listed next.
- compound: "Nc1n[nH]c2nc3ccc(C(F)(F)F)cc3nc12"
  GI50: "33.3 µM (inactive)"
- compound: "C1=N\\c2ccc(cc2)-c2ccc(cc2)/N=C\\c2ccc(cc2)OCc2cccc(n2)COc2ccc/1cc2"
  GI50: "> 100 µM (inactive)"
- compound: "O=C(/C=C/c1ccccc1)C[C@@H](O)C[C@@H]1CC=CC(=O)O1"
  GI50: "5.81 µM (inactive)"
- compound: "c1cc(NNc2cccc(-c3nnn[nH]3)c2)cc(-c2nnn[nH]2)c1"
  GI50: "> 100 µM (inactive)"
- compound: "COc1cc2c(cc1OC)C13CCN4CC5CCOC6CC(=O)N2C1C6C5CC43 (centres undefined)"
  GI50: "> 100 µM (inactive)"
- compound: "O=C1[C@H]2ON(c3ccccc3)C(c3ccc(Cl)cc3Cl)[C@H]2C(=O)N1c1ccc(Cc2ccc(N3C(=O)[C@@H]4ON(c5ccccc5)C(c5ccc(Cl)cc5Cl)[C@@H]4C3=O)cc2)cc1 (some centres undefined)"
  GI50: "19.6 µM (inactive)"
- compound: "O=NN(Cc1ccc(Cl)cc1)C(C(=O)O)c1ccccc1 (centres undefined)"
  GI50: "> 100 µM (inactive)"
- compound: "Nc1nc(NCC2(CO)CC(CCc3ccccc3)C2)cc(=O)[nH]1 (centres undefined)"
  GI50: "> 100 µM (inactive)"

We now examine a further compound.
Q: Recorded GI50 for CC(=O)O[C@@H](C1C[C@@H](C)[C@H]2[C@@](O)(O1)[C@H](O)[C@@]1(C)C3=CC[C@H]4C(C)(C)[C@@H](OC5OCC(O)C(O)C5O)CC[C@@]45C[C@@]35CC[C@]21C)C(C)(C)O (some centres undefined) with M14, please?
Ans: 29.3 µM (inactive)

* * *

- Tested on: IGROV-1
- protocol.details: NCI tumour cell line growth inhibition, 48 h
Calls of active or inactive are those of the source. Rule as the data show it: active = GI50 up to about 1.1 µM and inactive = higher.
experimental.readout: GI50

Take a look at these entries with their results.
- compound: "O=C1CSC2(CC(/C=C/c3ccccc3)=NN2c2cccc(S(=O)(=O)O)c2)N1c1nc2ccccc2s1 (stereo unspecified)"
  GI50: "16.1 µM (inactive)"
- compound: "C/C(CN1C(=O)c2ccccc2C1=O)=N\\NS(=O)(=O)c1ccc(Br)cc1"
  GI50: "> 100 µM (inactive)"
- compound: "O=C1/C(=C/c2ccc(Cl)cc2)CCC/C1=C\\c1ccc(O)c(CN2CCCCC2)c1"
  GI50: "15.5 µM (inactive)"
- compound: "O=C1N2CCc3c([nH]c4ccccc34)C23CC2CCCC12S3 (stereo unspecified)"
  GI50: "24.8 µM (inactive)"
- compound: "Cc1ccc2c(=O)cc(Cc3cccs3)[nH]c2n1"
  GI50: "> 100 µM (inactive)"

Kindly give each listed record's GI50.
1. NC(CC(=O)OCc1ccccc1)C(=O)OCc1ccccc1 (stereo unspecified)
2. CCOC(=O)CN1C(=O)c2c(NC(=O)C(=O)O)cccc2S1(=O)=O
3. N#CC(NNC(=O)c1ccccc1O)c1ccc(O)cc1 (stereo unspecified)
4. CC1CCCN(CP(=O)(c2ccccc2)c2ccccc2)C1 (stereo unspecified)
5. CN(C)CCCNC(=O)c1cc(NC(=O)c2cc(NC(=O)CCCn3c4ccccc4c4ccccc43)cn2C)cn1C
6. CCCCCCCCCCCCC(=O)CCCCC(=O)O

Ans:
["> 100 µM (inactive)", "> 100 µM (inactive)", "3.96 µM (inactive)", "> 100 µM (inactive)", "26.5 µM (inactive)", "17.3 µM (inactive)"]
